- test_protocol: conditioned avoidance-escape procedure (modified pole-climb avoidance)
- Type: in vivo
- run_conditions: oral; suppression of conditioned avoidance; male Wistar rat; read-out: Oral ED50 Avoidance
observable: ED50 (mg/kg)
Kindly provide the numeric value in mg/kg only, without the unit symbol.

Solved entries (count: 3):
[[record]]
molecule = "CC1=Nc2c(C)nn(C)c2C2=NC(C)CN12 (racemic) [R1=CH3, R2=CH3, R3=CH3, R4=H, R5=CH3 (Racemate)]"
observable = "ED50"
obs_value = 10

[[record]]
molecule = "CC1=Nc2c(C)nn(C)c2C2=NC(C)C(C)N12 (stereo not drawn) [R1=CH3, R2=CH3, R3=CH3, R4=CH3, R5=CH3]"
observable = "ED50"
obs_value = 20

[[record]]
molecule = "CC1=Nc2c(C)nn(C)c2C2=NCC(C)(C)N12 [R1=CH3, R2=CH3, R3=CH3, R4=(CH3)2, R5=H2]"
observable = "ED50"
obs_value = 32


(Q) Requested field: ED50. Item: CCC1CN2C(C)=Nc3c(C)nn(C)c3C2=N1 (stereo not drawn) [R1=CH3, R2=CH3, R3=CH3, R4=H, R5=C2H5]
(A) 7.5

(Q) Quick check: ED50 of Cc1nn(C)c2c1N=CN1CCN=C21 [R1=CH3, R2=CH3, R3=H, R4=H, R5=H] ?
(A) 18

(Q) Which ED50 value is on record for Cc1nn(C)c2c1N=C(C1CC1)N1CC(C)N=C21 (stereo not drawn) ?
(A) 11.5

(Q) Data request, read-out ED50, for CC1=Nc2c(C)nn(C)c2C2=N[C@@H](C(C)C)CN12 [R1=CH3, R2=CH3, R3=CH3, R4=H, R5=i-C3H7 (S-isomer)]
(A) 20

(Q) Which ED50 reading was recorded for the molecule Cc1nn(C)c2c1N=CN1CC(C)N=C21 (stereo not drawn) [R1=CH3, R2=CH3, R3=H, R4=H, R5=CH3] ?
(A) 18

(Q) Can you look up the measured ED50 of CCCn1nc(C)c2c1C1=NC(C)CN1C(C)=N2 (stereo not drawn) [R1=n-C3H7, R2=CH3, R3=CH3, R4=H, R5=CH3] for me?
(A) 37

(Q) ED50 for CC1=Nc2c(C)nn(C)c2C2=NC(C)(C)CN12 [R1=CH3, R2=CH3, R3=CH3, R4=H2, R5=(CH3)2] ?
(A) 18

(Q) // ED50 lookup, key: CCc1nc2c(C)nn(C)c2c2nc(C)cn12
(A) 8

(Q) Could you share which ED50 value was measured for CCC1=Nc2c(C)nn(C)c2C2=NC(C)CN12 (stereo not drawn) [R1=CH3, R2=CH3, R3=C2H5, R4=H, R5=CH3] ?
(A) 6.4

(Q) Name the recorded ED50 for CCn1nc(C)c2c1C1=NC(C)CN1C(C)=N2 (stereo not drawn) [R1=C2H5, R2=CH3, R3=CH3, R4=H, R5=CH3] .
(A) 5

====

- test_protocol: conditioned avoidance-escape procedure (modified pole-climb avoidance)
- Type: in vivo
- run_conditions: oral; suppression of escape response; male Wistar rat; read-out: Oral ED50 Escape
observable: ED50 (mg/kg)
Express the result in mg/kg but write the number alone.

Known results for molecules:
[[record]]
molecule = "CCn1nc(C)c2c1C1=NCCN1C(C)=N2"
observable = "ED50"
obs_value = 28

[[record]]
molecule = "CC1=Nc2c(C)nn(C)c2C2=NC(C)(C)CN12"
observable = "ED50"
obs_value = 120

[[record]]
molecule = "Cc1nn(C)c2c1N=CN1CC(C)N=C21 (centres unmarked)"
observable = "ED50"
obs_value = 56


API: the following record is the query input.
(Q) Can you share its ED50? I mean this molecule: Cc1nn(C)c2c1N=CN1CCN=C21
(A) 54
